Field: target mRNA knockdown. Provide a value for each of the substances that follow.
- Experimental parameters: siRNA; note: test system not given here
HELM strings list units from the 5' end as sugar, base in round brackets, then linkage (d deoxyribose, r ribose, m 2'-O-methyl, p phosphodiester). Strings are as the collection lists them, not checked against the first reports. ss, as = sense and antisense strand; [s4r] = 4'-thioribose; [fl2r] = 2'-fluoro
Numbers only here, please. The scale is %.

**Query** # lookup: target mRNA knockdown of RNA1{r(A)p.r(A)p.r(A)p.r(C)p.r(C)p.r(C)p.r(C)p.r(U)p.r(A)p.r(G)p.r(A)p.r(G)p.r(G)p.r(G)p.r(C)p.r(A)p.r(A)p.r(G)p.r(U)p.r(T)p.r(T)}|RNA2{[fl2r](A)p.r(C)p.[fl2r](U)p.r(U)p.[fl2r](G)p.r(C)p.[fl2r](C)p.r(C)p.[fl2r](U)p.r(C)p.[fl2r](U)p.r(A)p.[fl2r](G)p.r(G)p.[fl2r](G)p.r(G)p.[fl2r](U)p.r(U)p.[fl2r](U)p.r(T)p.r(T)}$$$RNA1{StrandType:ss}|RNA2{StrandType:as}$
**Result** 37

**Query** Also check RNA1{m(A)p.m(A)p.r(C)p.r(C)p.r(C)p.m(A)p.r(C)p.r(C)p.m(A)p.r(C)p.m(A)p.r(G)p.r(C)p.m(U)p.m(A)p.r(G)p.m(A)p.m(A)p.r(C)p.m(U)p.m(U)}|RNA2{r(A)p.r(A)p.r(G)p.r(U)p.r(U)p.r(C)p.r(U)p.r(A)p.r(G)p.r(C)p.r(U)p.r(G)p.r(U)p.r(G)p.r(G)p.r(U)p.r(G)p.r(G)p.r(G)p.r(U)p.r(U)}$$$RNA1{StrandType:ss}|RNA2{StrandType:as}$
**Result** 51

**Query** Also check RNA1{[fl2r](C)p.r(U)p.[fl2r](C)p.r(U)p.[fl2r](C)p.r(C)p.[fl2r](U)p.r(A)p.[fl2r](C)p.r(C)p.[fl2r](U)p.r(U)p.[fl2r](C)p.r(U)p.[fl2r](C)p.r(C)p.[fl2r](U)p.r(C)p.[fl2r](U)p.r(T)p.r(T)}|RNA2{r(A)p.r(G)p.r(A)p.r(G)p.r(G)p.r(A)p.r(G)p.r(A)p.r(A)p.r(G)p.r(G)p.r(U)p.r(A)p.r(G)p.r(G)p.r(A)p.r(G)p.r(A)p.r(G)p.r(T)p.r(T)}$$$RNA1{StrandType:ss}|RNA2{StrandType:as}$
**Result** 69

**Query** Also check RNA1{r(G)p.r(G)p.r(G)p.r(A)p.r(G)p.r(G)p.r(A)p.[fl2r](U)p.[fl2r](G)p.r(A)p.[fl2r](C)p.r(A)p.r(A)p.r(A)p.r(G)p.r(A)p.r(A)p.r(G)p.r(C)p.r(T)p.r(T)}|RNA2{r(G)p.r(C)p.r(U)p.r(U)p.r(C)p.r(U)p.r(U)p.[fl2r](U)p.r(G)p.r(U)p.[fl2r](C)p.r(A)p.r(U)p.r(C)p.r(C)p.r(U)p.r(C)p.r(C)p.r(C)p.r(T)p.r(T)}$$$RNA1{StrandType:ss}|RNA2{StrandType:as}$
**Result** 78

**Query** Also check RNA1{r(A)p.r(A)p.r(C)p.r(C)p.r(C)p.r(A)p.r(C)p.r(C)p.r(A)p.r(C)p.r(A)p.[fl2r](G)p.r(C)p.[fl2r](U)p.[fl2r](A)p.[fl2r](G)p.r(A)p.r(A)p.r(C)p.r(U)p.r(U)}|RNA2{r(A)p.r(A)p.r(G)p.r(U)p.r(U)p.r(C)p.r(U)p.r(A)p.r(G)p.r(C)p.r(U)p.r(G)p.r(U)p.r(G)p.r(G)p.r(U)p.r(G)p.r(G)p.r(G)p.r(U)p.r(U)}$$$RNA1{StrandType:ss}|RNA2{StrandType:as}$
**Result** 75

**Query** Also check RNA1{[s4r](C)p.[s4r](G)p.[s4r](U)p.[s4r](A)p.r(C)p.r(G)p.r(C)p.r(G)p.r(G)p.r(A)p.r(A)p.r(U)p.r(A)p.r(C)p.r(U)p.r(U)p.r(C)p.r(G)p.r(A)p.r(T)p.r(T)}|RNA2{r(U)p.r(C)p.r(G)p.r(A)p.r(A)p.r(G)p.r(U)p.r(A)p.r(U)p.r(U)p.r(C)p.r(C)p.r(G)p.r(C)p.r(G)p.r(U)p.r(A)p.r(C)p.r(G)p.r(T)p.r(T)}$$$RNA1{StrandType:ss}|RNA2{StrandType:as}$
**Result** 94.2

**Query** Also check RNA1{[fl2r](A)p.r(U)p.r(C)p.[fl2r](G)p.[fl2r](A)p.r(C)p.r(C)p.r(U)p.[fl2r](G)p.[fl2r](A)p.[fl2r](A)p.[fl2r](G)p.[fl2r](G)p.[fl2r](A)p.[fl2r](G)p.r(U)p.[fl2r](A)p.r(C)p.[fl2r](G)p.r(T)p.r(T)}|RNA2{r(C)p.[fl2r](G)p.r(U)p.[fl2r](A)p.r(C)p.r(U)p.r(C)p.r(C)p.r(U)p.r(U)p.r(C)p.[fl2r](A)p.[fl2r](G)p.[fl2r](G)p.r(U)p.r(C)p.[fl2r](G)p.[fl2r](A)p.r(U)p.r(T)p.r(T)}$$$RNA1{StrandType:ss}|RNA2{StrandType:as}$
**Result** 21

**Query** Also check RNA1{m(A)p.r(G)p.m(C)p.r(C)p.m(U)p.r(C)p.m(C)p.r(A)p.m(A)p.r(A)p.m(C)p.r(U)p.m(C)p.r(C)p.m(U)p.r(A)p.m(G)p.r(C)p.m(U)p.r(T)p.r(T)}|RNA2{r(A)p.r(G)p.m(C)p.r(U)p.r(A)p.r(G)p.r(G)p.r(A)p.r(G)p.r(U)p.r(U)p.r(U)p.r(G)p.r(G)p.r(A)p.r(G)p.r(G)p.m(C)p.r(U)p.r(T)p.r(T)}$$$RNA1{StrandType:ss}|RNA2{StrandType:as}$
**Result** 47

**Query** Also check RNA1{r(U)p.m(U)p.r(A)p.r(A)p.r(A)p.r(G)p.r(G)p.r(G)p.r(C)p.r(G)p.r(A)p.r(G)p.r(A)p.r(A)p.r(G)p.r(A)p.r(C)p.r(C)p.r(G)p.r(T)p.r(T)}|RNA2{r(C)p.r(G)p.r(G)p.r(U)p.r(C)p.r(U)p.r(U)p.r(C)p.r(U)p.r(C)p.r(G)p.r(C)p.r(C)p.r(C)p.r(U)p.r(U)p.m(U)p.r(A)p.r(A)p.r(T)p.r(T)}$$$RNA1{StrandType:ss}|RNA2{StrandType:as}$
**Result** 87
